experiment: Human HepG2 cell viability assay in 384 well format; type: toxicity, cell-based; design: dose 125 nL, time 70.5 hour; concentration not given beside the values; settings: HepG2 cells, read-out: Inhibition
measured_parameter: cytotoxicity at 70.5 h (%)
Please respond with the number in % and leave the unit unwritten.

Request the reported cytotoxicity at 70.5 h associated with CC(C)NC(=O)Nc1ccc(-c2nc(C(C)C)no2)cc1
-8.44

Record: COCC(=O)N1CC[C@@H]2CN(Cc3cccc(Cl)c3)S(=O)(=O)[C@@H]2CC1
24.3

Record: O=C(NCCc1csc(N2CCCC2)n1)N(C1CCCC1)C1CC1
-2.69

Record: CCS(=O)(=O)NC[C@]12COC[C@H]1CN(Cc1ccsc1)C2
7.84

Record: O=S(=O)(c1ccccc1)N1CCOC(Cn2ccnc2)C1 (stereo not given)
-6.05

Record: CC(=O)N1CCCC1c1nc(N(C)C)ncc1-c1ccccc1 (stereo not given)
23.2

Record: CC(=O)NC1CCCN(Cc2ccc(-n3ccnc3)cc2)C1 (stereo not given)
-4.74

Record: COC(=O)c1cccc(C(=O)N2CCN(c3cccc(C)c3C)CC2)n1
-14.1

Record: O=C(CN1CCOC1=O)N1CCC2(CCc3ccccc32)CC1
7.69

Record: CC1CCN(S(=O)(=O)N2C[C@H](c3ccccc3)[C@@H](N)C2)CC1
27.7

Record: Cn1ccnc1CC1CCCN(C(=O)Cc2ccccc2)C1 (stereo not given)
-1.68

Record: CC(C)(C)c1nnc(CNc2cc(F)ccc2OCC2CCCO2)o1 (stereo not given)
32.8

Record: CS(=O)(=O)CCCSc1cccc(C#N)c1
-13

Record: CCCNC(=O)CSc1nnc2[nH]c(=O)cc(CC)n12
11.1

Record: O=C(NCc1ccco1)[C@@H]1CCO[C@@H]2CCN(c3ncccn3)C[C@@H]21
9.24

Record: CN(C)c1ncccc1CNS(=O)(=O)c1ccc(F)cc1F
-12.9

Record: COC(=O)c1cc(C(=O)N2CCN(C)CC2)n(-c2ccccc2)n1
-6.12

Record: CNc1cc(C2CCCN(C(=O)c3ccc(=O)[nH]n3)C2)ccn1 (stereo not given)
-0.0309

Record: NC1(C(=O)NCC2CCCN(Cc3cccc4nonc34)C2)CCC1 (stereo not given)
-3.66

Record: CSc1ccccc1C(=O)Nc1ccc(OC2CCN(C)CC2)cc1
17.4

Record: CC(C)n1ccnc1C1CCCN(Cc2ccc(F)c(F)c2)C1 (stereo not given)
38

Record: CN(C)CC(=O)N1CCC2(CCN(Cc3cccc(F)c3)CC2)C1
-8.05

Record: Cc1cc(C)n(Cc2ccc(-c3noc(C(=O)NCCO)n3)cc2)n1
-18.6

Record: CCc1ccc(C(=O)NCc2ccnc(C)n2)cc1
-8.72

Record: CCN(c1ccccc1)S(=O)(=O)c1cc(C(=O)O)cc2c1CCC2
21.2

Record: CC(C)NC(=O)CN(C1CC1)C(C)C1CC1 (stereo not given)
-3.55

Record: CCC(C)(C)NC(=O)Cn1nnc(CN(C)C(=O)c2ccccc2)n1
-3.46

Record: Cc1ccc(N2CCO[C@H]3CN(Cc4ccncc4)C[C@H]32)nn1
-8.56

Record: c1ccc(-c2cccc(-c3ccn(CCN4CCCCC4)n3)c2)nc1
13.3

Record: Cc1ccc(CC(=O)N2CCN(c3nccs3)CC2)s1
14.7
